The origin of these recorded values is paper PMC7342494.

experimental target: rat α3β2 nAChRs (Rattus norvegicus, UniProt P04757+P12390)
Sequence (P04757 26-499 limits assumed): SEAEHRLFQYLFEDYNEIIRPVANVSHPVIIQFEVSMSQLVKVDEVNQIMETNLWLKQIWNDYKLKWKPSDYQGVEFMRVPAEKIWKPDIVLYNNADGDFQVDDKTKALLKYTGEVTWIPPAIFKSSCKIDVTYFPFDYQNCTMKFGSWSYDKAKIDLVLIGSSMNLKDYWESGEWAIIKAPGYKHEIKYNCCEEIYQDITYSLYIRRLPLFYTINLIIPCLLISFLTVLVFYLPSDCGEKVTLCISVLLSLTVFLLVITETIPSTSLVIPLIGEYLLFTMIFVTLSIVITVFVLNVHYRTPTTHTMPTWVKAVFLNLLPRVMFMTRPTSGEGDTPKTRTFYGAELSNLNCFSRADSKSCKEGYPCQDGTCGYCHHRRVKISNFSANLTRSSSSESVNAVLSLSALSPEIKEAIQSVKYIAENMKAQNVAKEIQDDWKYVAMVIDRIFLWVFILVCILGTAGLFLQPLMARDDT
Sequence (P12390 25-500 limits assumed): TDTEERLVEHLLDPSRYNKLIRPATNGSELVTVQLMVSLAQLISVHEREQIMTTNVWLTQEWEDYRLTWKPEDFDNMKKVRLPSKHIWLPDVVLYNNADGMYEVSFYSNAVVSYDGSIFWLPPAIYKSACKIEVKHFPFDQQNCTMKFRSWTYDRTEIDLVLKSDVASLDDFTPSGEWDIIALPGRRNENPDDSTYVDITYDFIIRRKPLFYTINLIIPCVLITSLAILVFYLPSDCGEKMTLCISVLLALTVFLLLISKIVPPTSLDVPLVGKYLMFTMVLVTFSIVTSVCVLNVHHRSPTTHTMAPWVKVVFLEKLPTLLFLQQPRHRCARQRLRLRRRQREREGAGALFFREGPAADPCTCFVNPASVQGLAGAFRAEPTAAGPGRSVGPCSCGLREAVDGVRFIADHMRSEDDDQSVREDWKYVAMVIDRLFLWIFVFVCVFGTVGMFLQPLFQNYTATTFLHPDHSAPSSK
Type: cell-based
readout kind: Ratio, IC50 ratio (α6/α3β2β3)/(α3β2)
Reply briefly: the number, and no unit.

Fill in: Ratio, IC50 ratio (α6/α3β2β3)/(α3β2) of GCCARAACAGIHQELC [LtIA] is ___
9

Fill in: Ratio, IC50 ratio (α6/α3β2β3)/(α3β2) of GCCSLPPCAANNPDYC [PnIA] is ___
1

Fill in: Ratio, IC50 ratio (α6/α3β2β3)/(α3β2) of GCCSHPACNVDHPEIC [LvIA] is ___
12

Fill in: Ratio, IC50 ratio (α6/α3β2β3)/(α3β2) of GCCSHPACNVNNPHICG [OmIA] is ___
18
